Just for reference, ChEMBL document CHEMBL1221207 is where these values come from.

Tested on: Oleandomycin glycosyltransferase (Streptomyces antibioticus), Q53685 [P67T,S132F,A242V]
Sequence (whole entry): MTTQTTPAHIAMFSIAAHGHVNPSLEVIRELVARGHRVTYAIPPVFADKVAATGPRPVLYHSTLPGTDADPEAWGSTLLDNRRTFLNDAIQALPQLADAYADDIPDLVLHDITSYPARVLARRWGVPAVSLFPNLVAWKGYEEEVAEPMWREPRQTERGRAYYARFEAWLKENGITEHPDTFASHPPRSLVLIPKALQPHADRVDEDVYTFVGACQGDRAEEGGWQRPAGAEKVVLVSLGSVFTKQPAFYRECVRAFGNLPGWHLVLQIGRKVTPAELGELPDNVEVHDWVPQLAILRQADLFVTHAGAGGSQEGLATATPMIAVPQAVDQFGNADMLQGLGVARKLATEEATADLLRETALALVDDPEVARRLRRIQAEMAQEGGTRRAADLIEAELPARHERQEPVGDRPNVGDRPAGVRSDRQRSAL
procedure_details: Activity of Streptomyces antibioticus OleD P67T/S132F/A242V mutant assessed as as rate of glucoside formation measured as nanomoles of product formed per minute per mg of enzyme
measurement_kind: Activity (nmol/min)
Give the value, in units of nmol/min, as a plain number.

{"test_smiles": "CO[C@H]1C[C@H](O[C@H]2[C@H](C)[C@@H](O[C@@H]3O[C@H](C)C[C@H](N(C)C)[C@H]3O)[C@@H](C)C[C@@]3(CO3)C(=O)[C@H](C)[C@@H](O)[C@@H](C)[C@@H](C)OC(=O)[C@@H]2C)O[C@@H](C)[C@@H]1O", "Activity (nmol/min)": 13}
{"test_smiles": "CC(C)=CCc1cc(C(=O)Nc2c(O)c3ccc(O)c(C)c3oc2=O)ccc1O", "Activity (nmol/min)": 1.14}
{"test_smiles": "Cc1cc(=O)oc2cc(O)ccc12", "Activity (nmol/min)": 84}
{"test_smiles": "O=c1c(O)c(-c2ccc(O)cc2)oc2cc(O)cc(O)c12", "Activity (nmol/min)": 28}
{"test_smiles": "O=C(O)Cc1cc(=O)oc2cc(O)ccc12", "Activity (nmol/min)": 3.6}

Given the entry `O=C(O)c1cc2ccc(O)cc2oc1=O` , report its measured Activity. 0.62

Quick one: Activity for `O=c1c(-c2ccc(O)cc2)coc2cc(O)cc(O)c12` ? 26

I am curious: what Activity value has been reported for `O=c1c(-c2ccc(O)cc2)coc2cc(O)ccc12` ? 24

----------
Below, each entry is listed alongside its reported Activity.
System: Oleandomycin glycosyltransferase (Streptomyces antibioticus), Q53685 [P67T]
Sequence (Q53685 whole entry P67T): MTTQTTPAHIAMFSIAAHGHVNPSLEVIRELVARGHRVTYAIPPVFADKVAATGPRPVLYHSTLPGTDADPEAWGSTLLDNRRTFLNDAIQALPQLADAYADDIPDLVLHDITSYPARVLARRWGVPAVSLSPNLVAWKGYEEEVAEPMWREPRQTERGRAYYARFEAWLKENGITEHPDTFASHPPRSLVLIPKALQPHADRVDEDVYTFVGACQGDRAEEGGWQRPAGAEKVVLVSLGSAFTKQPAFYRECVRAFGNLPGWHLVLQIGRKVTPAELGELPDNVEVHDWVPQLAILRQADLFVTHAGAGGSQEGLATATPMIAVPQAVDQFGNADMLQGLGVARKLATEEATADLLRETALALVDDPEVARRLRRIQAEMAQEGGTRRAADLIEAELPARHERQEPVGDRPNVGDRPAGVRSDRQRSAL
procedure_details: Activity of Streptomyces antibioticus OleD P67T mutant assessed as as rate of glucoside formation measured as nanomoles of product formed per minute per mg of enzyme

The cases that follow already have their Activity on record.
{"test_smiles": "O=c1c(-c2ccc(O)cc2)coc2cc(O)ccc12", "endpoint_value": "16 nmol/min"}
{"test_smiles": "CO[C@H]1C[C@H](O[C@H]2[C@H](C)[C@@H](O[C@@H]3O[C@H](C)C[C@H](N(C)C)[C@H]3O)[C@@H](C)C[C@@]3(CO3)C(=O)[C@H](C)[C@@H](O)[C@@H](C)[C@@H](C)OC(=O)[C@@H]2C)O[C@@H](C)[C@@H]1O", "endpoint_value": "200 nmol/min"}
{"test_smiles": "Cc1cc(=O)oc2cc(O)ccc12", "endpoint_value": "15.7 nmol/min"}
{"test_smiles": "CC(C)=CCc1cc(C(=O)Nc2c(O)c3ccc(O)c(C)c3oc2=O)ccc1O", "endpoint_value": "0.65 nmol/min"}

GET /values?readout=Activity&item= `O=C(O)c1cc2ccc(O)cc2oc1=O` 0.022 nmol/min

Bench note: what Activity did `O=c1c(O)c(-c2ccc(O)cc2)oc2cc(O)cc(O)c12` show? 99.9 nmol/min

Returns the measured Activity for the input compound. Input: `O=c1c(-c2ccc(O)cc2)coc2cc(O)cc(O)c12` 28.8 nmol/min

Request the reported Activity associated with `O=C(O)Cc1cc(=O)oc2cc(O)ccc12` 0.22 nmol/min

----------
system: Oleandomycin glycosyltransferase (Streptomyces antibioticus) (UniProt Q53685)
Sequence (whole entry): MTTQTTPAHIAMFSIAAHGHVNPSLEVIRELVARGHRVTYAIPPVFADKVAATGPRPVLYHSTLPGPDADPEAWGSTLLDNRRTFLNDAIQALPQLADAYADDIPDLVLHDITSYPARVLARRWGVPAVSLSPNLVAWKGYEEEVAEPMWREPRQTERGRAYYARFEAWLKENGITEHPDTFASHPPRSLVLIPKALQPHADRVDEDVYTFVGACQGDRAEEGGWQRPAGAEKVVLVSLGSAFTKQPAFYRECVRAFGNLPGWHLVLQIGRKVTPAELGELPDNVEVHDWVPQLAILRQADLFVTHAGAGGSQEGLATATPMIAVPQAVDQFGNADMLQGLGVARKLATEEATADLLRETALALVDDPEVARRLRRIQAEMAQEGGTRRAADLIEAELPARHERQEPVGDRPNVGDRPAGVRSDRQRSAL
procedure_details: Activity at Streptomyces antibioticus wild-type OleD assessed as as rate of glucoside formation measured as nanomoles of product formed per minute per mg of enzyme
measurement_kind: Activity (nmol/min)
Write down the numeric answer in nmol/min and omit the unit.

# Activity lookup, item `O=c1c(O)c(-c2ccc(O)cc2)oc2cc(O)cc(O)c12` 13.2

I'd like to know its Activity. The compound in question is `CO[C@H]1C[C@H](O[C@H]2[C@H](C)[C@@H](O[C@@H]3O[C@H](C)C[C@H](N(C)C)[C@H]3O)[C@@H](C)C[C@@]3(CO3)C(=O)[C@H](C)[C@@H](O)[C@@H](C)[C@@H](C)OC(=O)[C@@H]2C)O[C@@H](C)[C@@H]1O` 700

Can you share its Activity? I mean this compound: `CC(C)=CCc1cc(C(=O)Nc2c(O)c3ccc(O)c(C)c3oc2=O)ccc1O` 0.24

What does the record list as Activity for `O=C(O)c1cc2ccc(O)cc2oc1=O` ? 0.01

----------
system: Oleandomycin glycosyltransferase (Streptomyces antibioticus)
procedure_details: Activity of Streptomyces antibioticus OleD […] mutant assessed as as rate of glucoside formation measured as nanomoles of product formed per minute per mg of enzyme
Readings of Activity for the listed compounds
Report the figure in nmol/min without appending any unit label.

{"test_smiles": "O=C(O)Cc1cc(=O)oc2cc(O)ccc12", "system": "Oleandomycin glycosyltransferase (Streptomyces antibioticus)", "measurement_kind": "Activity", "endpoint_value": 0.08}
{"test_smiles": "O=c1c(-c2ccc(O)cc2)coc2cc(O)cc(O)c12", "system": "Oleandomycin glycosyltransferase (Streptomyces antibioticus)", "measurement_kind": "Activity", "endpoint_value": 8.8}
{"test_smiles": "O=c1c(-c2ccc(O)cc2)coc2cc(O)ccc12", "system": "Oleandomycin glycosyltransferase (Streptomyces antibioticus)", "measurement_kind": "Activity", "endpoint_value": 5.5}

Read the next record carefully.
May I ask what Activity has been recorded for `O=c1c(O)c(-c2ccc(O)cc2)oc2cc(O)cc(O)c12` ? 23

----------
system: Oleandomycin glycosyltransferase (Streptomyces antibioticus) (UniProt Q53685)
Sequence (whole entry): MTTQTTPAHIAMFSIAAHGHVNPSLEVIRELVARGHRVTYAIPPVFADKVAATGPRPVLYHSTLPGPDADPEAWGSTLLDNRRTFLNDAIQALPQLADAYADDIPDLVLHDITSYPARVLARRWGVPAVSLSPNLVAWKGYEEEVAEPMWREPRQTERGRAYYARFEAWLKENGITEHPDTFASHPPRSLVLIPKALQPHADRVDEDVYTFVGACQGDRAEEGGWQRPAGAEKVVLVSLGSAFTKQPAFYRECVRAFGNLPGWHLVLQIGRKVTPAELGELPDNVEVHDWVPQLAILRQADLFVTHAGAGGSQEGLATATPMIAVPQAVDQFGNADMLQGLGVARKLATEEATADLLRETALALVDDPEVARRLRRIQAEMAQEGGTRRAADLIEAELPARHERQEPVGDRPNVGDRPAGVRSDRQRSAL
procedure_details: Activity of Streptomyces antibioticus OleD […] mutant assessed as as rate of glucoside formation measured as nanomoles of product formed per minute per mg of enzyme
measurement_kind: Activity
Form entry: enter the amount, then its unit.

Worked examples, 3 compounds total:
{"test_smiles": "CC(C)=CCc1cc(C(=O)Nc2c(O)c3ccc(O)c(C)c3oc2=O)ccc1O", "Activity": "0.49 nmol/min"}
{"test_smiles": "Cc1cc(=O)oc2cc(O)ccc12", "Activity": "6.3 nmol/min"}
{"test_smiles": "CO[C@H]1C[C@H](O[C@H]2[C@H](C)[C@@H](O[C@@H]3O[C@H](C)C[C@H](N(C)C)[C@H]3O)[C@@H](C)C[C@@]3(CO3)C(=O)[C@H](C)[C@@H](O)[C@@H](C)[C@@H](C)OC(=O)[C@@H]2C)O[C@@H](C)[C@@H]1O", "Activity": "1490 nmol/min"}

GET /values?readout=Activity&system=Oleandomycin glycosyltransferase (Streptomyces antibioticus) (UniProt Q53685)&item= `O=C(O)c1cc2ccc(O)cc2oc1=O` 0.022 nmol/min
